These data points were gathered from ChEMBL document CHEMBL3885881.

Catalogue of molecules with associated LEUKOCYTE COUNT
species: Rattus norvegicus; assay: DrugMatrix - Regimen: Daily Repeat; type: toxicity, organism-based, Sprague-Dawley; parameters: regimen Daily Repeat, gender Male, age 6-8 weeks; details: in vivo, po, 1500 mg/kg, 72 h, tissue Blood, route oral GAVAGE, dose level High, time 3 day, vehicle .5 % CMC
Measurement Kind: LEUKOCYTE COUNT (x10E3/uL)

> print(dat)
                                   molecule  unit.tag  test.value
1  CC(C)(Sc1cc(C(C)(C)C)c(O)c(C(C)(C)C)c1)Sc1cc(C(C)(C)C)c(O)c(C(C)(C)C)c1 [PROBUCOL]  x10E3/uL        14.5
2  CCOC(=O)[C@H](CCc1ccccc1)N[C@@H](C)C(=O)N1CCC[C@H]1C(=O)O  x10E3/uL       18.73
3  Nc1nc2c(c(=O)[nH]1)N(C=O)C(CNc1ccc(C(=O)N[C@@H](CCC(=O)O)C(=O)O)cc1)CN2 (stereo not given in full) [LEUCOVORIN]  x10E3/uL       16.77
4  O=c1cc(-c2ccccc2)oc2ccc3ccccc3c12 [BETA-NAPHTHOFLAVONE]  x10E3/uL       12.26
5  C[C@@H](O)[C@H]1C(=O)N2C(C(=O)O)=C(S[C@@H]3CN[C@H](C(=O)N(C)C)C3)[C@H](C)[C@H]12 [MEROPENEM]  x10E3/uL        13.5
